STUDY_SYSTEM: hCA II (Homo sapiens, UniProt P00918)
TEST: stopped flow CO2 hydrase assay, hCA II inhibition
EXPERIMENTAL_CONDITIONS: read-out: KI hCA II; stopped flow CO2 hydrase assay, mean from three assays
Measured pKi accompanies every entry in the list below.
Kindly note that pKi refers to -log10 of the concentration in mol/L and answer with the value alone.

Examples with their reported pKi follow.
Problem: Param item = NS(=O)(=O)c1cc(NC(=O)N[C@@H]2C(O)O[C@@H](CO)[C@H](O)[C@H]2O)c(O)c([N+](=O)[O-])c1 (stereo partly shown) ; retrieve measured pKi.
Solution: 6.07

Problem: And then NS(=O)(=O)c1cc(NC(=O)NCc2ccco2)c(O)c([N+](=O)[O-])c1 , what is it?
Solution: 5.60

Problem: And then NS(=O)(=O)c1ccc(O)c([N+](=O)[O-])c1 , what is it?
Solution: 6.62

Continuing:
Problem: Param item = COc1cccc(NC(=O)Nc2cc(S(N)(=O)=O)cc([N+](=O)[O-])c2O)c1 ; retrieve measured pKi.
Solution: 5.29

Problem: And then CC(=O)OC[C@@H]1O[C@@H](OC(C)=O)[C@@H](NC(=O)Nc2cc(S(N)(=O)=O)cc([N+](=O)[O-])c2O)[C@H](OC(C)=O)[C@H]1OC(C)=O , what is it?
Solution: 5.72

Problem: And then Cc1cc(C)cc(NC(=O)Nc2cc(S(N)(=O)=O)cc([N+](=O)[O-])c2O)c1 , what is it?
Solution: 6.35

Problem: And then Nc1cc(S(N)(=O)=O)cc([N+](=O)[O-])c1O , what is it?
Solution: 6.21

Problem: And then Cc1cc(NC(=O)Nc2cc(S(N)(=O)=O)cc([N+](=O)[O-])c2O)ccc1F , what is it?
Solution: 6.68

Problem: And then NS(=O)(=O)c1cc(NC(=O)Nc2cc(C(F)(F)F)cc(C(F)(F)F)c2)c(O)c([N+](=O)[O-])c1 , what is it?
Solution: 5.76

Problem: And then NS(=O)(=O)c1cc(NC(=O)Nc2ccc(F)cc2)c(O)c([N+](=O)[O-])c1 , what is it?
Solution: 6.28

Problem: And then NS(=O)(=O)c1cc(NC(=O)Nc2ccccc2)c(O)c([N+](=O)[O-])c1 , what is it?
Solution: 5.56

Problem: And then NS(=O)(=O)c1cc(NC(=O)c2ccc(F)cc2)c(OC(=O)c2ccc(F)cc2)c([N+](=O)[O-])c1 , what is it?
Solution: 6.34

Problem: And then NS(=O)(=O)c1cc(NC(=O)Nc2ccc3c(c2)OCO3)c(O)c([N+](=O)[O-])c1 , what is it?
Solution: 5.36

Problem: And then NS(=O)(=O)c1cc([N+](=O)[O-])c(OC(=O)c2ccccc2)c([N+](=O)[O-])c1 , what is it?
Solution: 6.08

Problem: And then NS(=O)(=O)c1cc(NC(=O)c2ccccc2)c(OC(=O)c2ccccc2)c([N+](=O)[O-])c1 , what is it?
Solution: 6.41

Problem: And then NS(=O)(=O)c1cc(NC(=O)NCCc2ccccc2)c(O)c([N+](=O)[O-])c1 , what is it?
Solution: 5.51

Problem: And then NS(=O)(=O)c1cc(O)c(O)c([N+](=O)[O-])c1 , what is it?
Solution: 6.19

Problem: And then Cc1cc(C)[n+](-c2cc(S(N)(=O)=O)cc([N+](=O)[O-])c2O)c(C)c1 , what is it?
Solution: 5.74

Problem: And then NS(=O)(=O)c1cc(NC(=O)Nc2c(F)c(F)c(F)c(F)c2F)c(O)c([N+](=O)[O-])c1 , what is it?
Solution: 6.57
